Origin of the recorded values: BindingDB's records for patent WO2022081807

Target: UniProt Q8WYB5
Sequence (Q8WYB5 whole entry): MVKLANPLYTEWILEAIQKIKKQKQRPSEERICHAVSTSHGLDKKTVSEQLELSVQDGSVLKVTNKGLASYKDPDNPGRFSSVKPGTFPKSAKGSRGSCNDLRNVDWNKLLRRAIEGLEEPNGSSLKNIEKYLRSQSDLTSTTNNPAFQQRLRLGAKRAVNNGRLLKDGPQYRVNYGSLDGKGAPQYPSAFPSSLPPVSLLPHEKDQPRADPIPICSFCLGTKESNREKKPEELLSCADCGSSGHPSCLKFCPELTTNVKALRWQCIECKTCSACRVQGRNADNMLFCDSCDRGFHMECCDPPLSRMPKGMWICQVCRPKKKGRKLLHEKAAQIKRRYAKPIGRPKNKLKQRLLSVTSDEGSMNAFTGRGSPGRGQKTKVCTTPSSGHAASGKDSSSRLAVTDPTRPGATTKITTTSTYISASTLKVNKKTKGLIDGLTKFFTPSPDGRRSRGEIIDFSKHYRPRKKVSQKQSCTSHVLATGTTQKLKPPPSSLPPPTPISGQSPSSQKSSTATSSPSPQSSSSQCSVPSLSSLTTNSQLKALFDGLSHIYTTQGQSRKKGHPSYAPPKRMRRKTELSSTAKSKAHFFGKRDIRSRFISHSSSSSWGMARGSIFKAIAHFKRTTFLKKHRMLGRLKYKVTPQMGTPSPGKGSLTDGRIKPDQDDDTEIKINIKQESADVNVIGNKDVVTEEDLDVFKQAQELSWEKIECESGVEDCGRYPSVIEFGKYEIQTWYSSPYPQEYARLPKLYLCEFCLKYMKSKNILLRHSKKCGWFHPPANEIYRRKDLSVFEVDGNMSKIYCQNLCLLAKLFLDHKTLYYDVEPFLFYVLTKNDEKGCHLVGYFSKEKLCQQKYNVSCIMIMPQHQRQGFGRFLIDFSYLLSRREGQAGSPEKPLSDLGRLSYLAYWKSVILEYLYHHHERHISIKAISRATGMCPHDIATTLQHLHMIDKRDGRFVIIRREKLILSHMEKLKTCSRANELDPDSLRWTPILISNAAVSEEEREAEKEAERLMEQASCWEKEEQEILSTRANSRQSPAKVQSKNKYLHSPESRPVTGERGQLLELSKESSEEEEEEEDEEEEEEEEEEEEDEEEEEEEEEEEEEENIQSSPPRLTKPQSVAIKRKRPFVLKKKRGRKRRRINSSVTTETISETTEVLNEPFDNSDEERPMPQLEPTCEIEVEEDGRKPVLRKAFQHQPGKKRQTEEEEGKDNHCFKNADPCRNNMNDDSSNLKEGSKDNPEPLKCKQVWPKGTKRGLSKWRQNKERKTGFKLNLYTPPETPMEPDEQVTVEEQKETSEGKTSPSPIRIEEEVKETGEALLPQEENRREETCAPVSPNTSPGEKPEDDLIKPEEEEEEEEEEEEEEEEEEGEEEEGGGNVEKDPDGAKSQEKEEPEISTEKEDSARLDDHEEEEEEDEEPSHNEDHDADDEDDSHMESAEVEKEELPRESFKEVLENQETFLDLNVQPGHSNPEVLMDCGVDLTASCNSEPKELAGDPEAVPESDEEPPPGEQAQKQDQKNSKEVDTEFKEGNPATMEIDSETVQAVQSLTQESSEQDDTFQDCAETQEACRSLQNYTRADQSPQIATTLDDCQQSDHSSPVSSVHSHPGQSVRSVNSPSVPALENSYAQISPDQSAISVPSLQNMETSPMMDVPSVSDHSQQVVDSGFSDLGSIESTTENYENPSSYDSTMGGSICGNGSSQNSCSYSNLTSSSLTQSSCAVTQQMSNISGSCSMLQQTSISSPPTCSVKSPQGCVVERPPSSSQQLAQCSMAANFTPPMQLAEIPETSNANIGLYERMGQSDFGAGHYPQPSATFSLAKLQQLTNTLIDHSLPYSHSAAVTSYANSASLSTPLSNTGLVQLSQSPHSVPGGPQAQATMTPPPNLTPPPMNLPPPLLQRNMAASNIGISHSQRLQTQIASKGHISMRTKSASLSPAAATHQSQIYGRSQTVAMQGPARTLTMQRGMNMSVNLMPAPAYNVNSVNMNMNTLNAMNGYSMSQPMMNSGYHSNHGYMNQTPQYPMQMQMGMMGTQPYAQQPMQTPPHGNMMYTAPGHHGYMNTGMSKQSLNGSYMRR
Experiment: Kat6b Activity Assay
test_readout: IC50 (nM)

> print(dat)
                                   molecule  test.readout  observed.value
1  CCOc1ccc(C(C)(C)C)cc1S(=O)(=O)NC(=O)c1cc2c(F)cc(N3CC(F)C3)cc2o1 [WO2022081807, Example 113]          IC50              12

[P] CC(C)Oc1ccc(C(C)(C)C)cc1S(=O)(=O)NC(=O)c1cc2c(F)cc(N3CCC3)cc2o1 [WO2022081807, Example 229]
[Q] COc1ccc(C(C)C)cc1S(=O)(=O)NC(=O)c1cc2c(F)cc(N3CCC3)cc2o1 [WO2022081807, Example 128]
Query :: Smaller IC50 value? Options are P and Q Lab log: write the label of the selected item as the result.
Result :: Q
